Data origin: patent US12577234B2

Recorded Human M4 Emin, one value per entry.
- STUDY SYSTEM: human mAChR M4 (Homo sapiens, UniProt P08173)
- Construct: expressed in transfected cells; host or cells: CHO-K1 (ATCC), stably co-expressing chimeric G protein Gqi5
- Sequence (P08173 whole entry): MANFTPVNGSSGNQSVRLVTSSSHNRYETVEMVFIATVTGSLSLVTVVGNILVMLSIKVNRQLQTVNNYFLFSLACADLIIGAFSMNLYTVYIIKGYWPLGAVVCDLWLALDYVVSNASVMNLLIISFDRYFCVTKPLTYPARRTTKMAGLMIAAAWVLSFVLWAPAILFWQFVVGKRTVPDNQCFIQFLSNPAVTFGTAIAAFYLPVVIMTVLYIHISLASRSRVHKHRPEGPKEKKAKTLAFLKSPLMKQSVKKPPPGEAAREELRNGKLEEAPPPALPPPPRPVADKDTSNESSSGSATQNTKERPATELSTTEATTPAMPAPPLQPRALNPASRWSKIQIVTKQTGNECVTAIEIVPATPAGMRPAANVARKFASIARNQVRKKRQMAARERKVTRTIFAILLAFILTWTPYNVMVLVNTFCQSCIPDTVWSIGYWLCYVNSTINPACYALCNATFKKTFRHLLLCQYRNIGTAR
- TEST METHOD NOTES: mAChR M4 cell-based functional assay (calcium mobilization, EC80 acetylcholine), human M4
- CONDITION SET: Table 10
Report the value in % with no unit label.

Here are 4 molecules together with their reported answers.
> print(dat)
                                test.smiles  endpoint.label  quantitative.result
1  c1coc(-c2ccc(N[C@H]3C[C@@H]4CN(CC5CCOCC5)C[C@@H]4C3)nn2)c1   Human M4 Emin                   14
2  Fc1cccc(Cl)c1-c1ccc(N[C@H]2C[C@@H]3CN(CC4CCOCC4)C[C@@H]3C2)nn1   Human M4 Emin                    4
3  Cc1nn(C)cc1-c1cnc(N[C@H]2C[C@@H]3CN(CCC(C)(C)C)C[C@@H]3C2)cn1   Human M4 Emin                    5
4  COc1ccccc1CN1C[C@H]2C[C@H](Nc3ccc(-c4cc(F)ccc4Cl)nn3)C[C@H]2C1   Human M4 Emin                    4

Moving on to the next molecule.
Request: Specify Human M4 Emin for Fc1ccccc1-c1ccc(N[C@H]2C[C@@H]3CN(CC4CCOCC4)C[C@@H]3C2)nn1 and stop.
Result: 4
